Values were extracted from ChEMBL document CHEMBL3882729.

Biological target: Ephrin type-B receptor 4 (Homo sapiens, UniProt P54760)
Sequence (P54760 whole entry): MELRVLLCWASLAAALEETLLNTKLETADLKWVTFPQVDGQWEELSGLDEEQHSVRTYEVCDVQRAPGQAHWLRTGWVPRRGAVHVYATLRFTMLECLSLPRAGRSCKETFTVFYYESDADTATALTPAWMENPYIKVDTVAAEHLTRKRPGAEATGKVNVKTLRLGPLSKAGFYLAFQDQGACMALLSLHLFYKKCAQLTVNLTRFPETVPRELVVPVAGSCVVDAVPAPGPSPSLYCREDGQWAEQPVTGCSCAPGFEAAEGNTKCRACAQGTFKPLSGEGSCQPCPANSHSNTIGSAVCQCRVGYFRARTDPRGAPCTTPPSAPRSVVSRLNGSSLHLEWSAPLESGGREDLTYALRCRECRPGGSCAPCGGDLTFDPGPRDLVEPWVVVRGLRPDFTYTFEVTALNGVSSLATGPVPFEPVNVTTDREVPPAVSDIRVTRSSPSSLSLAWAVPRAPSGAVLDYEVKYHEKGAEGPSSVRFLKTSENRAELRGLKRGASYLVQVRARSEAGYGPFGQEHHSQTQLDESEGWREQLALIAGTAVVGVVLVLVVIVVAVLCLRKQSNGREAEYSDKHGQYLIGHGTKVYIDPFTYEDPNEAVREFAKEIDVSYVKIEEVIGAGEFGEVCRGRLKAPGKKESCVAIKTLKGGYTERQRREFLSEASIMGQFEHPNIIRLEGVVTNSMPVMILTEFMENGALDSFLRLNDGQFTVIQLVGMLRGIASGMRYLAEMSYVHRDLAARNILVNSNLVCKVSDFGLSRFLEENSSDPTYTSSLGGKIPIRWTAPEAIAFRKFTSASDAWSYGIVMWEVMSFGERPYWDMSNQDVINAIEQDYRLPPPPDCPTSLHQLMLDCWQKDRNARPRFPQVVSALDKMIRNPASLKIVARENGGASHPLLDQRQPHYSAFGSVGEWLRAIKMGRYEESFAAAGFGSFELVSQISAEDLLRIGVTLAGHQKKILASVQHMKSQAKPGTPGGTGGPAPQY
Assay: Inhibition of recombinant human N-terminal His6-tagged EphB4 kinase domain (E605 to E890 residues) expressed in baculovirus using poly-AEKY as substrate after 150 mins in presence of gamma33P-ATP by liquid scintillation spectrometry
pIC50: −log10 of the molar value.
assay-readout: pIC50

* COC(=O)CCCCN1CCOC(COc2cc3ncnc(Nc4ccc(Cl)c(Cl)c4)c3cc2OC)C1 (centres undefined) | 6.00 to 7.30
* COc1cc2c(Nc3ccc(Cl)c(Cl)c3)ncnc2cc1OCC1CN(C2CCOCC2)CCO1 (centres undefined) | > 7.30
* COc1cc2c(Nc3ccc(F)c(Cl)c3F)ncnc2cc1OC[C@@H]1CN2CCC[C@H]2CO1 | > 7.30
* COc1cc2c(Nc3ccc(Cl)c(Cl)c3Cl)ncnc2cc1OCC1CN(C)CCO1 (centres undefined) | > 7.30
